Exercise: for every item that follows, state its recorded cytotoxicity at 70.5 h.
# assay.method.text: Human HepG2 cell viability assay in 384 well format
# Format: toxicity, cell-based
# Parameters: dose 125 nL, time 70.5 hour; concentration not given beside the values
# condition.summary: HepG2 cells, read-out: Inhibition
Only the number, expressed in %, is required.

Task: Need cytotoxicity at 70.5 h of Cc1n[nH]c(C2CN(CC(=O)NCCC3=CCCCC3)CCO2)n1 (stereo unspecified) , thanks.
Output: 76.6

Task: Cool, now "Cc1cc(C)nc(N(C)CCn2ccnc2C)n1"
Output: -2.15

Task: Same question, "COc1ccc(NC(=O)c2ccc(CN3CC[C@H](O)C3)cc2)c(OC)n1" this time
Output: -7.69

Task: Entry to check: "Cc1ccnc(NCCNC(=O)Cc2c(C)[nH]c3c(C)ccc(C)c23)c1"
Output: 34.5

Task: Would you mind doing Cc1nc(CN2CCOC(Cn3cncn3)C2)nc2ccccc12 (stereo unspecified) as well?
Output: -16.8

Task: Note, next up: "Fc1cnc(N2CCN3C[C@H](Oc4cccnc4)C[C@H]3C2)nc1"
Output: -3.94

Task: CCc1cnc(C)nc1N1CCC(Cc2cccc(C(=O)O)c2)C1 (stereo unspecified) ?
Output: -7.7

Task: Let us now turn to CSCCC(C)NC(=O)CCN1C(=O)CCc2cc(F)ccc21 (stereo unspecified)
Output: -4.19

Task: Try "CCc1cnc(N2C[C@@H](NC(=O)c3cscn3)[C@H]3COC[C@H]32)nc1" next.
Output: -11.1

Task: Next up: "CC(C)(C)n1cc(C(=O)N2CCN(Cc3cccnc3)CC2)cn1"
Output: -7.69

Task: Also "O=C(c1cccnc1-n1cncn1)N1CCN(c2ccccc2)CC1" ?
Output: -8.14

====

# assay.method.text: Human HepG2 cell viability assay in 384 well format
# Type: toxicity, cell-based
# Parameters: dose 125 nL, time 70.5 hour; concentration not given beside the values
# condition.summary: HepG2 cells, read-out: Inhibition
Can you tell me cytotoxicity at 70.5 h for the items I'm about to list?
Give just the numeric value; % need not be written.

Task: Suppose we examine the compound "O=C(CN1CCc2c(ncn2C2CC2)C1)NC1CCOCC1" ; what cytotoxicity at 70.5 h value has been reported?
Output: -10.3

Task: Further, for "O=C([C@H]1COC[C@H]2CN(C3CCOCC3)C[C@H]21)N1CCC(F)CC1" ?
Output: -8.13

Task: Let us now turn to "Fc1cnc(N2CC[C@@H](N3CCOCC3)[C@@H]2Cc2cccnc2)nc1"
Output: 9.63

Task: Another: "Cc1noc(C)c1C(=O)NCCN1CCOCC1"
Output: 1.59

Task: Then this compound: COCCn1cc2c(n1)C(CNCc1nccs1)OCC2 (stereo unspecified)
Output: -2.52

Task: Next entry: "Cc1nc(NCCSc2ccccn2)c2c(C)noc2n1"
Output: -4.96

Task: Entry to check: CC1CCC(N2CCC(NS(=O)(=O)CCOC(C)C)CC2)CC1 (stereo unspecified)
Output: 14.8

Task: Another compound: c1ccc(N2CCOCC3(CCCN(c4nccs4)C3)C2)nc1 (stereo unspecified)
Output: 4.3

Task: "Cc1ccc(Sc2nccn(C)c2=O)cc1" ?
Output: -3.35

Task: What about this compound? "CC(=O)Nc1ccc(CNC(=O)CNCc2snnc2C)cc1"
Output: 15.4

Task: Same lookup for "CC(=O)N1[C@H](CN(C)C)C[C@@H]2CN(C(=O)c3occc3C)CC[C@@H]21" , please.
Output: -3.81

====

# assay.method.text: Human HepG2 cell viability assay in 384 well format
# Type: toxicity, cell-based
# Parameters: dose 125 nL, time 70.5 hour; concentration not given beside the values
# condition.summary: HepG2 cells, read-out: Inhibition
Could you please report measured cytotoxicity at 70.5 h for the items listed next?
Reply numerically in %, unit not repeated.

Task: Find the recorded cytotoxicity at 70.5 h belonging to O=C(NCC(Cc1cccc(F)c1)N1CCCC1=O)c1cnccn1 (stereo unspecified) and report it.
Output: 0.835

Task: Another compound to check: O=C(c1cc(C2CCCN(Cc3ccccn3)C2)no1)N1CCCC1 (stereo unspecified)
Output: -1.56

Task: What do we get for "COc1ncc(NS(=O)(=O)c2cccc(C)c2)c(OC)n1" ?
Output: 21.8

Task: And the next one, "CN(Cc1cnn(C)c1)C(=O)NCc1nnc2n1CCC2" ?
Output: -25.4

Task: Try "Cc1ccccc1-c1cncc(C2CCN(Cc3ccccn3)CC2)n1" next.
Output: -3.39

Task: What about "CC(=O)N1CC2(CCNCC2)c2cc(Cl)ccc21" ?
Output: -6.66

====

# assay.method.text: Human HepG2 cell viability assay in 384 well format
# Assay type: toxicity, cell-based
# Parameters: dose 125 nL, time 70.5 hour; concentration not given beside the values
# condition.summary: HepG2 cells, read-out: Inhibition
Hi there, I'd appreciate the recorded cytotoxicity at 70.5 h for every entry that follows.
Please give a number only; it is taken to be in %.

Task: What cytotoxicity at 70.5 h value was documented for this compound, "O=C(NC[C@]12COC[C@H]1CN(Cc1nccs1)C2)c1ccccc1" ?
Output: -15

Task: Now this one: "CCN1C(=O)C(C)(C)c2cc(NC(=O)c3ccn(CC)n3)ccc21"
Output: -19.5

Task: Would you kindly repeat that for O=C(Nc1ccccc1F)C1CSCN1C(=O)CCc1ccco1 (stereo unspecified) ?
Output: -8.52

Task: Another compound to look at: "CCN(Cc1cccc(C(=O)Nc2ncc(C)s2)c1)[C@H]1COC[C@@H]1O"
Output: -3.78

Task: Record: "Cc1cnc(C)c(N2CCC(c3nnc(CN(C)C)n3C3CC3)CC2)n1"
Output: 11.2

Task: Query "O=C(Nc1cn[nH]c1)c1ccc(O)nc1" next
Output: 1.6

====

Please go through the items and note down their cytotoxicity at 70.5 h.
# assay.method.text: Human HepG2 cell viability assay in 384 well format
# Format: toxicity, cell-based
# Parameters: dose 125 nL, time 70.5 hour; concentration not given beside the values
# condition.summary: HepG2 cells, read-out: Inhibition
Returns: string containing the number followed by the unit.

Task: Name the reported cytotoxicity at 70.5 h value associated with the compound NC(=O)C1CCCN(c2ncnc3c2Cc2ccccc2OC3)C1 (configuration not stated)
Output: 19%

Task: Ok, now Cc1cc(C)c(C(=O)N2CCOCC2c2c(C)nn(C)c2C)o1 (configuration not stated)
Output: -12.3%

Task: Further, for "CC(=O)Nc1ncc(S(=O)(=O)Nc2cccc(C)c2)s1" ?
Output: -12.5%

Task: And CN(CCOCC1CC1)C(=O)Nc1ccc([S+](C)[O-])c(F)c1 (configuration not stated) ?
Output: 21.5%

Task: Would you mind doing "O=C(Cc1ccncc1)N1C[C@@H]2CC[C@H](C1)N(Cc1ccccc1)C2=O" as well?
Output: -3.45%

Task: Then what about the compound CC(CCc1ccccc1)NC(=O)Nc1cnn(CC(N)=O)c1 (configuration not stated) ?
Output: -2.53%

Task: Now try "CN1CCc2c(C#N)c(NCc3ccncc3)n3cnnc3c2C1" .
Output: -14.7%

Task: Same question for "O=C1[C@@H]2CCN(Cc3ccncc3)C[C@@H]2OCCN1c1ccccc1" please.
Output: -8.52%

Task: Queued: OC(CN1CCOCC1)c1ccc(OC(F)(F)F)cc1 (configuration not stated)
Output: -9.34%

Task: Same again, this time with CC1c2ncc(CN3CCN(C)CC3)n2CCN1Cc1ccc(F)cc1 (configuration not stated)
Output: -2.82%

Task: Please give the result for CCC(c1ccc(F)cc1F)S(=O)(=O)CCO (configuration not stated) too.
Output: -1.73%

Task: What about this compound? "CS(=O)(=O)c1ccc(-c2cc(C3CC3)c(C#N)c(N)n2)cc1"
Output: 0.0408%

Task: Repeat with "COc1ccc(CC(=O)N2CCc3nc(C(=O)N(C)C)sc3CC2)cc1"
Output: -4%

Task: Consider next the compound "Clc1ccc(OCCCN2CCN(c3cnccn3)CC2)cc1" in the same way.
Output: -6.78%

Task: Here is the next compound: "CCn1nc2c(cc1=O)CN(Cc1nc(N)c3ccccc3n1)CC2"
Output: -2.07%

Task: Same again, this time with Cc1c(C2CCCN(C(=O)C3CC3)C2)n2c(nc1=O)CCC2 (configuration not stated)
Output: -3.86%

Task: Next record, please: "CCN(Cc1ccc2c(c1)OCCO2)C(=O)NCc1nc(C)cs1"
Output: -27.9%

Task: Now consider "O=C(O)C1CCN(C[C@H]2CC[C@@H](Cc3ccc4c(c3)OCO4)O2)CC1" .
Output: 8.69%

Task: Follow-up item: "CC(C)=CCN1C[C@H]2CC[C@@H]1CN(C(=O)c1ccc(S(N)(=O)=O)cc1)C2"
Output: 1.36%

Task: Try the compound "Cc1nn(CCc2nnc(NCC(C)C)s2)c(C)c1Br"
Output: -16%

Task: Note, next up: CC/N=c1\nc(NCC)nc2n1C(O)(Nc1cc(C)ccc1C)CS2 (configuration not stated)
Output: -10.1%

Task: Query "CCN1CCN(C(=O)NCc2cccnc2-n2cccn2)CC1" next
Output: 10.5%

Task: Please do the same for O=C(Nc1ccccc1)N1C(CO)[C@]2(O)CC[C@H]1CC2 (some centres not stated) as well.
Output: 15%

Task: Next: "O=C(CCSc1ccc(F)cc1)N1CCN(c2cnccn2)CC1"
Output: -14.2%

Task: Note, next up: CCn1cnnc1C1CCN(C(=O)C(OC)c2ccccc2)CC1 (configuration not stated)
Output: -0.299%

Task: How about "CCN1CC2(CCC1=O)CCN(C(=O)c1ccc(C)cc1O)CC2" ?
Output: -14.7%

Task: Also COc1cc(CC(O)CC#N)c(OC)c2c1OCO2 (configuration not stated) ?
Output: -9.38%

Task: Next entry: "CC[C@@H]1N(Cc2ccncc2)CCC[C@]12CCC(=O)N2C"
Output: -20.1%

Task: Cool, now "O=C(NCCn1nc(-n2cncn2)ccc1=O)c1ccsc1"
Output: -4.55%

Task: Next compound up: CC(C)c1nnc2n1CC(CNCc1ccsc1)CC2 (configuration not stated)
Output: 2.53%

Task: Note, next up: Cn1cnnc1C1CCCN(C(=O)COCc2ccccc2)C1 (configuration not stated)
Output: -2.8%

Task: Same again, this time with "COc1ccc(S(=O)(=O)NC(=O)COc2ccc3c(c2)CCC3)cc1"
Output: 17.6%

Task: Similarly, Cc1cccc(-c2nnc(C(C)NCCn3cc(C)cn3)o2)c1 (configuration not stated) ?
Output: -7.5%

Task: Next compound: "CC(=O)Nc1cccc2c1ccn2CC(=O)Nc1n[nH]c(CC(C)C)n1"
Output: -5.98%

Task: Please answer likewise for "COc1cc(C)nc(N2CCN(C(=O)c3cccc(C#N)c3)CC2)n1"
Output: -5.09%

Task: Queued: "COCCO[C@H]1CCN(C(=O)c2cnccn2)[C@H]1Cc1ccncc1"
Output: -1.32%

Task: Also need CC(Cn1cccn1)NCc1nc(-c2ccc3c(c2)OCO3)no1 (configuration not stated) , thanks.
Output: 13%

Task: Then CC(OCC1CC1)C(=O)NCCC(=O)Nc1ccccn1 (configuration not stated) ?
Output: -7.55%

Task: Repeat with "NC(=O)c1noc(Cn2ccc3ccccc3c2=O)n1"
Output: -4.6%

Task: Please do the same for O=C(CSCc1ccccn1)NCC1CCN(C2CC2)C1 (configuration not stated) as well.
Output: 0.243%

Task: Request: "CNc1cc2c(nn1)CCN(C(=O)c1ccc3c(c1)CCC3)C2"
Output: -4.27%

Task: Also CC(=O)N1CCC(Nc2ccc(Br)cc2C#N)C1 (configuration not stated) ?
Output: 4.92%

Task: What about this compound? "CN(C)S(=O)(=O)c1ccc2c(c1)N(Cc1nccn1C)CC2"
Output: -3.03%

Task: // same read-out, input: "Cc1ncc(C(=O)N2CC(C(=O)N3CCOCC3)C2)c(C)n1"
Output: -12.5%

Task: Likewise for CNc1cc(N2CCCC2CNCc2cccnc2)ncn1 (configuration not stated) ?
Output: 4.98%

Task: Then what about the compound "Cc1cc2c(cc1Cl)C=CC1(CCN(CC(=O)NC3CCCC3)CC1)O2" ?
Output: -1.12%

Task: Next entry: Cn1c(=O)oc2cc(S(=O)(=O)N3CCC(c4ccccc4)C3)c(Cl)cc21 (configuration not stated)
Output: 25%
